- Target under test: CDK6/CyclinD3 (Homo sapiens)
- Sequence (Q00534 whole entry, species assumed): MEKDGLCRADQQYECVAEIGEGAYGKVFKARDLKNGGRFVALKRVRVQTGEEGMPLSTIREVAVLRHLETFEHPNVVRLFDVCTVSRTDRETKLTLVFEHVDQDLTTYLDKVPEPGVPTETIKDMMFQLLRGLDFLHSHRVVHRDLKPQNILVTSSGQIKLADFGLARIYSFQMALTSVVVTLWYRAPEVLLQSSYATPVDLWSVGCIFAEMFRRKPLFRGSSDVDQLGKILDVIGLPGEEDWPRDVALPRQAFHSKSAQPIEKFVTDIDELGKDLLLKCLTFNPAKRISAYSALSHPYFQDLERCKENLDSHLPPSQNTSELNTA
- Sequence (P30281 whole entry partner, species assumed): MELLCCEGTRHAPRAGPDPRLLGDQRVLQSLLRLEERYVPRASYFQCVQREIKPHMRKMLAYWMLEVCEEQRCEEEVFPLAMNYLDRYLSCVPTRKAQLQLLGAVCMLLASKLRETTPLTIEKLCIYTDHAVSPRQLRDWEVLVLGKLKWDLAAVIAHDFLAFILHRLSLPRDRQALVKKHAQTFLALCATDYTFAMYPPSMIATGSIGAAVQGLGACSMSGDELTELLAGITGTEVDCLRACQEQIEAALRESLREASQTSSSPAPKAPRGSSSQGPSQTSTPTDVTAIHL
- Test summary: Kinase activity test (mobility shift assay, EZ Reader), CDK6
- Condition: CDK6/CyclinD3 5.00 nM, ATP 350 μM, FL-Peptide34
pIC50 listing for selected compounds.
Please keep in mind that pIC50 is minus log10 of the molar concentration; only the number is needed.

Which pIC50 reading was recorded for the compound COC(=O)N1CCC[C@@H](Nc2ncc(Cl)c(-c3cc(F)c4c(c3)N(C(C)C)CCO4)n2)C1 [TA-10] ?
6.69

Which pIC50 reading was recorded for the compound CC(=O)N1CCC[C@@H](Nc2ncc(Cl)c(-c3cc(F)c4c(c3)N(C(C)C)CCO4)n2)C1 [TA-16] ?
7.00

Kindly review the next compound as well.
Which pIC50 reading was recorded for the compound CN1CCCn2c1nc1c(F)cc(-c3nc(NC4CCN(S(C)(=O)=O)CC4)ncc3Cl)cc12 [TB-43] ?
6.70

====

- Target under test: CDK6/CyclinD3 (Homo sapiens)
- Test summary: Kinase activity test (mobility shift assay, EZ Reader), CDK6
- Condition: CDK6/CyclinD3 5.00 nM, ATP 350 μM, FL-Peptide34
IC50 listing for selected compounds.

Use these answered entries as a reference point.
What reported IC50 corresponds to CC(C)n1c(N2CCOC2=O)nc2c(F)cc(-c3nc(Nc4ccc(S(=O)(=O)NC5(C#N)CC5)cc4)ncc3Cl)cc21 [TB-68] on CDK6/CyclinD3 (Homo sapiens)?
> 500 nM

What reported IC50 corresponds to CC(C)n1c(N2CCCC2=O)nc2c(F)cc(-c3nc(N[C@@H]4CCOC[C@H]4O)ncc3Cl)cc21 [TA-54] on CDK6/CyclinD3 (Homo sapiens)?
> 500 nM

What reported IC50 corresponds to CN1CCCn2c1nc1c(F)cc(-c3nc(NC4CCC(F)(F)CC4)ncc3Cl)cc12 [TB-95] on CDK6/CyclinD3 (Homo sapiens)?
> 500 nM

Kindly review the next compound as well.
What reported IC50 corresponds to CC(C)N1CCOc2c(F)cc(-c3nc(NC4CCCC(C(=O)N(C)C)C4)ncc3F)cc21 (stereo not shown) [TA-7] on CDK6/CyclinD3 (Homo sapiens)?
> 500 nM
